Molecular target: Torsin-1A (Homo sapiens) (UniProt O14656)
Sequence (O14656 whole entry, looked up): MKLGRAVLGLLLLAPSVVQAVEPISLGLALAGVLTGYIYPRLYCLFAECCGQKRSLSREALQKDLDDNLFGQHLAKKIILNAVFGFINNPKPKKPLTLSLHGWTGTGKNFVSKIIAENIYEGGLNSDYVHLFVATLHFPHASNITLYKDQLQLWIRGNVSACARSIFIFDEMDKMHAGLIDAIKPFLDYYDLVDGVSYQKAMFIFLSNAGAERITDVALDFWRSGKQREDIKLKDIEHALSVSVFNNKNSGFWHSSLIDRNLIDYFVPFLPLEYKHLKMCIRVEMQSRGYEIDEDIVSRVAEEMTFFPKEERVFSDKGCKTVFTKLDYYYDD
Test: small-molecule binders of mutant TOR1A in lysate, primary screen, cell lysate, small-molecule microarray, COS7 lysate, 635/667 nm fluorescence (AID 1150);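 note: score pools 667 nm emission and signal to noise measuring lysate protein binding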
Details: COS7 hTOR1A mutant lysate, 635 nm fluorescence, higher = more signal
composite z-score by entry:
Quick one: just the number, no unit, thanks!

INSERT INTO results (compound, assay_endpoint, val) VALUES
  ('C=CCNC(=O)[C@@H]1[C@H]2C(=O)O[C@H](c3ccccc3)[C@H](c3ccccc3)N2[C@H](c2ccc(OCCO)cc2)[C@@]12C(=O)Nc1ccc(C#CCC(C(=O)OC)C(=O)OC)cc12', 'composite z-score', 1.46);

Query: Which composite z-score reading was recorded for the compound O=C1C[C@@](C(=O)NCCN2CCOCC2)(c2ccc([N+](=O)[O-])cc2)[C@@H](c2ccc(CO)cc2)N1CC12CC3CC(CC(C3)C1)C2 ?
Result: 1.21

Query: Quick one: composite z-score of [N-]=[N+]=Nc1ccccc1[C@H]1OC(c2ccc(OCCCO)cc2)=N[C@@]1(CCS(=O)(=O)c1ccccc1)C(N)=O ?
Result: 0.356

Query: # input compound: CCCCCCc1nc(-c2ccc(OC)nc2)cc2c1[Si](C(C)C)(C(C)C)O[C@H]2c1ccccc1 ; wanted: its composite z-score
Result: -0.234

Query: State the recorded composite z-score for this entry: CN(C)CCCC[C@@H]1NC(=O)[C@@H]2C[C@H](C(=O)NCCCCCCN)[C@H](c3cccc(OCCO)c3)N2C1=O
Result: 1.99

Query: Any idea what composite z-score was measured for COc1ccc([C@H]2OC[C@@H]3C[C@@H](Cc4ccccc4)C(=O)N32)cc1 ?
Result: 0.556

Ref: PubChem BioAssay
